These data points were gathered from paper PMC12401554.

# Tested on: 3D HepaRG spheroids
# measurement_description: CometChip assay
# Assay type: cell-based, human
# condition_description: 24-h exposure, at the maximum concentration shown in the table
Below is a list of entries, each paired with its recorded Fold increase of DNA damage over the vehicle control value.
Please provide the amount together with its unit, number first.

[
  {
    "smiles_repr": "CC(C)N(N=O)C(C)C",
    "value_observed": "1.8 fold"
  },
  {
    "smiles_repr": "O=NN1CCN(C2CCCC2)CC1",
    "value_observed": "2.3 fold"
  }
]

Query: Which Fold increase of DNA damage over the vehicle control reading was recorded for the molecule CCN(CC)N=O ?
Response: 2.6 fold

Query: Which Fold increase of DNA damage over the vehicle control reading was recorded for the molecule CN(CCCC(=O)O)N=O ?
Response: 2.3 fold

Query: Which Fold increase of DNA damage over the vehicle control reading was recorded for the molecule CCCCN(CCCC)N=O ?
Response: 2.8 fold

Query: Which Fold increase of DNA damage over the vehicle control reading was recorded for the molecule CCN(N=O)C(C)C ?
Response: 2.4 fold
